# Tested on: SW-620 colon
# experiment_description: NCI tumour cell line growth inhibition, 48 h
# reported GI50; entries follow

COc1ccc(/C=C/C(=O)c2cc3c(N)c(C(=O)Nc4ccccc4Cl)sc3nc2C)cc1 ... 3.39 µM
OCCCCC#Cc1ccccc1C#Cc1ccccc1 ... 15.7 µM
Nc1ccccc1C#C/C=C\C#Cc1ccccc1C(F)(F)F ... 1.5 µM

Asked: Look up GI50 for this compound: CC(CN(CP(=O)([O-])[O-])CP(=O)([O-])[O-])N(CP(=O)([O-])[O-])CP(=O)([O-])[O-].N.N.[Pt+2] (configuration not stated)
Given back: > 100 µM

Asked: Look up GI50 for this compound: C[C@]12CCC3[C@@H](C[C@@H]4SC(Nc5ccccc5)=N[C@@]45CC(=O)CC[C@]35C)[C@@H]1CCC2=O (some centres not stated)
Given back: 3.38 µM

Asked: Look up GI50 for this compound: CSc1nc2c(c(=O)[nH]1)N=C1c3ccccc3C(=O)C1C(c1ccc(F)cc1)N2 (configuration not stated)
Given back: 4.48 µM

Asked: Look up GI50 for this compound: CC(=O)OC[C@H]1O[C@@H](n2ccc(=O)[nH]c2=O)[C@H](OC(C)=O)[C@@H]1OC(C)=O
Given back: > 100 µM

Asked: Look up GI50 for this compound: O=Cc1c(-c2cc(O)ccc2O)nc2sccn12
Given back: 25.3 µM

###

# reported TGI; entries follow
# Test system: M14 melanoma
# experiment_description: NCI tumour cell line growth inhibition, 48 h
Numbers only here, please. The scale is µM.

Look over these answered cases.
COC(=O)c1c(C)cccc1C1CN=NC12Cc1cccc(C)c1C2=O (centres undefined) ... 25.5
CCOC(=O)c1c(SCCN2CCCCC2)n(-c2ccccc2)c(=S)n(-c2ccccc2)c1=O ... 81.6
CCn1c(O)c(C(=O)NC(C)c2ccc([N+](=O)[O-])cc2)c(=O)n(CC)c1=S (centres undefined) ... 6.04

Below: the item to evaluate.
Asked: Look up TGI for this compound: C=C1CC(Cn2cc(Br)c(=O)[nH]c2=O)(c2ccc(Br)cc2)OC1=O (centres undefined)
Given back: 3.22

###

# System: M14 melanoma
# experiment_description: NCI tumour cell line growth inhibition, 48 h
measured_property: TGI

Look over these answered cases.
CC(C)(C)N1CCC1C(N)=O (stereo not drawn) ... > 100 µM
COc1ccc(C(=O)/C=C/c2ccc(OCCCOc3ccc(/C=C/C(=O)c4ccc(OC)c(OC)c4)cc3)cc2)cc1OC ... > 100 µM
N[C@@H](Cc1c[nH]c2ccccc12)C(=O)NC1CCN(C(=O)c2c[nH]c3ccccc23)CC1 ... > 100 µM
CCCOC1OC(CS(=O)(=O)O)C(OC(C)=O)C(OC(C)=O)C1OC(C)=O (stereo not drawn) ... > 100 µM
[N-]=[N+]=NC(c1cn(C2CC(O)C(CO)O2)c(=O)[nH]c1=O)C(Br)I (stereo not drawn) ... > 100 µM
CCOP(=O)(OCC)C(NC(c1ccccc1)c1ccccc1)c1ccccc1 (stereo not drawn) ... 28.6 µM
O=C(O)c1ccc2c(c1)Cc1cc([N+](=O)[O-])ccc1-2 ... > 100 µM
O=C1/C(=C/C=C/c2ccccc2)CCC1CNc1ccc(Br)cc1 (stereo not drawn) ... > 100 µM
C=C1C(=O)O[C@H]2[C@H]1CC/C(COC(=O)NCc1cc3ccccc3[nH]1)=C\CC[C@@]1(C)O[C@@H]21 ... 3.85 µM
C=C1[C@@H](C)[C@H]2[C@H](Cc3ccccc3)NC(=O)[C@]23OC(=O)/C=C/[C@H](O)CCC[C@@H](C)C/C=C/[C@H]3[C@@H]1O ... > 100 µM

Asked: Look up TGI for this compound: COC(CC1(CCNc2ccccc2)C(=O)N(COCC[Si](C)(C)C)c2ccccc21)OC (stereo not drawn)
Given back: 6.92 µM

Asked: Look up TGI for this compound: O=c1[nH]nc(N/N=C\c2ccc(Cl)cc2)c2ccccc12
Given back: 35.4 µM

###

# Test system: M14 melanoma
# experiment_description: NCI tumour cell line growth inhibition, 48 h
# reported TGI; entries follow

COc1ccc(C=C2C(=O)OC(C)(C)OC2=O)cc1OC ... > 100 µM

Asked: Look up TGI for this molecule: O=C(O)CNc1c2ccccc2nc2ccccc12
Given back: > 100 µM

Asked: Look up TGI for this molecule: Cc1c(/C=N/NS(=O)(=O)c2ccccc2)no[n+]1[O-]
Given back: > 100 µM

Asked: Look up TGI for this molecule: Cc1sc2nc3n(sc4nc5sc(C)c(C)c5c(=O)n43)c(=O)c2c1C
Given back: > 100 µM

Asked: Look up TGI for this molecule: NNc1nnc(-c2ccccc2)nc1Cc1ccccc1
Given back: 45.5 µM

Asked: Look up TGI for this molecule: COc1ccc(/C=N/N=C(\N)NO)c(OC)c1OC
Given back: > 100 µM

###

# reported TGI; entries follow
# Test system: NCI-H460 lung
# experiment_description: NCI tumour cell line growth inhibition, 48 h

COc1ccc(/C=N/N=C(\N)NO)cc1OC ... > 100 µM
COc1ccccc1NC(=O)CSC(N)=O ... > 100 µM
COc1c(-c2ccc(F)cc2)oc2cc(O)cc(O)c2c1=O ... 59.9 µM

Asked: Look up TGI for this compound: CCCCCCCCCCCCCCCCCC(=O)OCC(CN(C)CCN(C)C)OC(=O)CCCCCCCCCCCCCCCCC (stereo unspecified)
Given back: > 100 µM

Asked: Look up TGI for this compound: CCOC(=O)NC(OCc1ccccc1)(C(=O)OC)C(F)(F)F (stereo unspecified)
Given back: > 100 µM

###

# Test system: NCI-H522 lung
# experiment_description: NCI tumour cell line growth inhibition, 48 h; in the data active = GI50 below about 0.43 µM; inactive = the rest
Answer with one of the outcomes given here: true (1) for active, false (0) for inactive

CC(=O)OC[C@H]1O[C@@H](n2ccc(=O)[nH]c2=O)[C@H](OC(C)=O)[C@@H]1OC(C)=O ... false (0)
CN(C)CCCn1c2c(c3cnccc3c1=O)C(=O)c1ccccc1-2 ... true (1)
COc1ccccc1-[n+]1cc(-c2ccc(-c3ccccc3)cc2)n2c1CCCCC2 ... true (1)
CC1=C(/C=C/C(C)=C\C=C\C(C)=C\C(=O)Nc2ccc3c(c2)OCO3)C(C)(C)CCC1 ... false (0)
C[C@]12CCC3[C@@H](C[C@@H]4SC(Nc5ccccc5)=N[C@@]45CC(=O)CC[C@]35C)[C@@H]1CCC2=O (some centres undefined) ... false (0)

Asked: Returns: the outcome recorded for Cc1ccc(C(=O)Nc2ccc(CN3CCN(C)CC3)c(C(F)(F)F)c2)cc1C#Cc1cnc(N)cc1C#N in this assay.
Given back: true (1)

Asked: Returns: the outcome recorded for O=C(/C=C/c1cccnc1)NCCCCC1CCN(C(=O)c2ccccc2)CC1 in this assay.
Given back: true (1)

Asked: Returns: the outcome recorded for NC(=O)c1cnc(N[C@@H]2CCCC[C@@H]2N)nc1Nc1cccc(-n2nccn2)c1 in this assay.
Given back: false (0)

Asked: Returns: the outcome recorded for CCN(Cc1cccc(OC)c1)c1ccc(CO)c(Cl)c1 in this assay.
Given back: false (0)

###

# reported TGI; entries follow
# Test system: PC-3 prostate
# experiment_description: NCI tumour cell line growth inhibition, 48 h

Asked: Report TGI for COc1c(O)c2c(c3cc(C(=O)N4CCc5c4c(O)c(OC)c4[nH]c(C(=O)N6CC7CC78C6=CC(=O)c6[nH]cc(C)c68)cc54)[nH]c13)CCN2C(N)=O (stereo not given) tested on PC-3 prostate.
Given back: 10 µM

Asked: Report TGI for COc1ccc(-c2cc(-c3ccc(OC)c(OC)c3)nc(SCCCC(=O)NO)n2)cc1 tested on PC-3 prostate.
Given back: > 100 µM

Asked: Report TGI for C=C1C(=O)O[C@H]2[C@H]1CC/C(COC(=O)/C=C/C(=O)OC/C1=C/CC[C@@]3(C)O[C@H]3[C@H]3OC(=O)C(=C)[C@@H]3CC1)=C\CC[C@@]1(C)O[C@@H]21 tested on PC-3 prostate.
Given back: > 100 µM

Asked: Report TGI for Oc1ccc(Cc2ccc(O)c3ncccc23)c2cccnc12 tested on PC-3 prostate.
Given back: 53.2 µM

Asked: Report TGI for CCCC(CC)c1cc(O)c(O)cc1C(CC)CCC (stereo not given) tested on PC-3 prostate.
Given back: > 10 µM

Asked: Report TGI for COc1ccc(C2C3=CONC3CC3CCCCC32)cc1 (stereo not given) tested on PC-3 prostate.
Given back: > 100 µM

Asked: Report TGI for COC(C[C@H]1CCCC[C@]1(O)/C(=C\CO[Si](C(C)C)(C(C)C)C(C)C)Sc1ccccc1)OC tested on PC-3 prostate.
Given back: > 100 µM

Asked: Report TGI for c1cc2c3c(c1)[C@@H]1O[C@@H]1c1cccc(c1-3)[C@@H]1O[C@H]21 tested on PC-3 prostate.
Given back: 51.9 µM
